- testSystem: Peptide 5: Biotin-…-[Tyr(PC)]-acid
- Sequence (peptide, as listed by the source): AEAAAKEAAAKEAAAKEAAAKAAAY
- protocolText: scFv ELISA
metricName: OD450 (OD450)
Note: unit OD450 is implicit; provide only the numeric part.

Below, each entry is followed by its recorded OD450 result.
# binder, assayResult
data = [
    ("PcOxP_DB01_D11 (scFv, V domains shown, scFv in periplasmic extract) VH: EVQLLESGGGLVQPGGSLRLSCAASGFTFSSYYMEWVRQAPGKGLEWVAASRNKANDYTTEYADSVKGRFTISRDNSKNTLYLQMNSLRAEDTAVYYCARDYYGSSYWYNDVWGQGTLVTVSS VL: DIVMTQSPDSLAVSLGERATINCTASESLYSSKWKVHYLAWYQQKPGQPPKLLIYGASNRYIGVPDRFSGSGSGTDFTLTISSLQAEDVAVYYCAQFYSYPLTFGGGTKVEIK", 2.09),
    ("PcOxP_DB02_A06 (scFv, V domains shown, scFv in periplasmic extract) VH: EVQLLESGGGLVQPGGSLRLSCAASGFTFSDQYMEWVRQAPGKGLEWVAASRNKANDYTTEYADSVKGRFTISRDNSKNTLYLQMNSLRAEDTAVYYCARDYYGSSYWYFDVWGQGTLVTVSS VL: DIQMTQSPSSLSASVGDRVTITCTASESLYSSKHKVHYLAWYQQKPGKAPKLLIYGLSNRYIGVPSRFSGSGSGTDFTLTISSLQPEDFATYYCAQFYSYPLTFGGGTKVEIK", 1.07),
    ("PcOxP_DB01_C06 (scFv, V domains shown, scFv in periplasmic extract) VH: EVQLLESGGGLVQPGGSLRLSCAASGFEFSDNYMEWVRQAPGKGLEWVAASRNKANDYTTEYADSVKGRFTISRDNSKNTLYLQMNSLRAEDTAVYYCARDYYGSSYWYFDVWGQGTLVTVSS VL: DIQMTQSPSSLSASVGDRVTITCTASESLYSSKHKVHYLAWYQQKPGKAPKLLIYGASNRFIGVPSRFSGSGSGTDFTLTISSLQPEDFATYYCAQFYYYPLTFGGGTKVEIK", 1.31),
    ("PcOxP_DB01_B01 (scFv, V domains shown, scFv in periplasmic extract) VH: EVQLLESGGGLVQPGGSLRLSCAASGFTFSDQYIEWVRQAPGKGLEWVAASRNKANDYTTEYADSVKGRFTISRDNSKNTLYLQMNSLRAEDTAVYYCARDYLGSSYWYFDVWGQGTLVTVSS VL: DIQMTQSPSSLSASVGDRVTITCTASESLYSSKHKVHYLAWYQQKPGKAPKLLIYGASHRYIGVPSRFSGSGSGTDFTLTISSLQPEDFATYYCAQFYAYPLTFGGGTKVEIK", 0.9),
]

Query block: Name the reported OD450 value associated with the binder PcOxP_DB03_D11 (scFv, V domains shown, scFv in periplasmic extract) VH: EVQLLESGGGLVQPGGSLRLSCAASGFTFSDFYMEWVRQAPGKGLEWVAASRNKANDYTTEYADSVKGRFTISRDNSKNTLYLQMNSLRAEDTAVYYCARDYYGHSYWYFDVWGQGTLVTVSS VL: DIQMTQSPSSLSASVGDRVTITCTASESLYSSKHKVHYLAWYQQKPGKAPKLLIYGASSRYIGVPSRFSGSGSGTDFTLTISSLQPEDFATYYCAQFYEYPLTFGGGTKVEIK
Result block: 0.66
